Source: ChEMBL document CHEMBL3132834

assay: Selectivity ratio of IC50 for human HT-29 cells to IC50 for human IMR90 cells; type: ADME, cell-based; conditions: HT-29 cells versus IMR90 cells, read-out: Ratio IC50
measurement.type: selectivity ratio

>>> test_result("CC1=C(CC(=O)Oc2ccc(OC(=O)CCCO[N+](=O)[O-])c(C(=O)Oc3ccc(-c4cc(=S)ss4)cc3)c2)c2cc(F)ccc2/C1=C\\c1ccc([S+](C)[O-])cc1 (configuration not stated)")
70

Give its selectivity ratio value. Item: `C[C@H](C(=O)Oc1ccc(-c2cc(=S)ss2)cc1)c1ccc2cc(OC(=O)CCCO[N+](=O)[O-])ccc2c1`
70

###

assay: Selectivity ratio of IC50 for human BxPC3 cells to IC50 for human ACBRI 515 cells; assay type: ADME, cell-based, BXPC-3; details: BxPC3 cells versus ACBRI 515 cells, read-out: Ratio IC50
measurement.type: selectivity ratio
Just the number, please, no unit attached.

Give its selectivity ratio value. Item: `C[C@H](C(=O)Oc1ccc(-c2cc(=S)ss2)cc1)c1ccc2cc(OC(=O)CCCO[N+](=O)[O-])ccc2c1`
147
